ligand efficiency values for the compounds below.
biological target: T. brucei TryR (Trypanosoma brucei brucei, UniProt P39051); assay: TryR enzyme assay; assay type: biochemical, Trypanosoma brucei brucei strain S427; conditions: from T. brucei TryR IC50
Sequence (P39051 whole entry): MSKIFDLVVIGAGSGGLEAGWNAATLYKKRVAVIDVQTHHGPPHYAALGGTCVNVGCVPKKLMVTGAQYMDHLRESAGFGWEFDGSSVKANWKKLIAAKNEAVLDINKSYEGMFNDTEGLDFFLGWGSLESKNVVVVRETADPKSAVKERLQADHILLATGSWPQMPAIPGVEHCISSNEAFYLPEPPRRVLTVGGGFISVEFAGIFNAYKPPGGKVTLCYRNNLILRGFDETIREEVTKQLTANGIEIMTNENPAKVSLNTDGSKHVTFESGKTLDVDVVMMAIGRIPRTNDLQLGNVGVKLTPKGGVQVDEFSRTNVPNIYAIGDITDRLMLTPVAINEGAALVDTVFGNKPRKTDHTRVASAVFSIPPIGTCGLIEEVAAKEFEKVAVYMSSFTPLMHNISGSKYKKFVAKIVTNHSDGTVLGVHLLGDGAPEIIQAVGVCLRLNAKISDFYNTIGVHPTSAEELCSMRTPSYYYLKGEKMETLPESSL

Before answering, review these 3 worked examples.
| Compound | ligand efficiency |
| --- | --- |
| CC1=Nc2ccc(Cl)cc2C(c2ccc(C)cc2)N1CCCN(C)C (stereo not shown) [29a] | > 0.3 kcal mol^–1 per non-H atom |
| CC1=Nc2ccc(Cl)cc2C(c2ccccc2)N1CCN1CCN(C)CC1 (stereo not shown) | 0.31 kcal mol^–1 per non-H atom |
| CC1=Nc2ccc(Cl)cc2C(c2ccccc2)N1CCN1CCN(C(=O)c2ccco2)CC1 (stereo not shown) [13e] | 0.27 kcal mol^–1 per non-H atom |

Consider the additional compound presented here.
stdin: Query ligand efficiency on T. brucei TryR (Trypanosoma brucei brucei, UniProt P39051) for CCN1C(C)=Nc2ccc(Cl)cc2C1c1ccccc1 (stereo not shown)
stdout: > 0.3 kcal mol^–1 per non-H atom

###

molecular target: T. brucei TryR (Trypanosoma brucei brucei, UniProt P39051); experiment: TryR enzyme assay; assay type: biochemical, Trypanosoma brucei brucei strain S427; details: vs 1c IC50 9.4 μM
Measured endpoint: improvement in TryR potency with respect to ester 1c (fold)

| Molecule | Assay target | Numeric result |
| --- | --- | --- |
| CC1=Nc2ccc(Cl)cc2C(c2ccccc2)N1CCNC(=O)c1ccco1 (stereo not drawn) [11e] | T. brucei TryR (Trypanosoma brucei brucei, UniProt P39051) | 11 |
| CC1=Nc2ccc(Cl)cc2C(c2ccccc2)N1CCN1CCN(C)CC1 (stereo not drawn) [9c] | T. brucei TryR (Trypanosoma brucei brucei, UniProt P39051) | 10 |
| CC1=Nc2ccc(Cl)cc2C(c2ccccc2)N1Cc1ccccc1F (stereo not drawn) [6d] | T. brucei TryR (Trypanosoma brucei brucei, UniProt P39051) | 10 |

a = CC1=Nc2ccc(Cl)cc2C(c2ccccc2)N1CCN1CCN(C(=O)c2ccco2)CC1 (stereo not drawn) [13e]
b = CC1=Nc2ccc(Cl)cc2C(c2ccccc2)N1Cc1cccc(N(C)C)c1 (stereo not drawn) [6g]
stdin: Name the one with the greater improvement in TryR potency with respect to ester 1c value, either a or b as given. // respond with label for picked entry
stdout: a
(a: 22 fold, b: 10 fold)

###

experiment: Resazurin viability counter-screen, MRC5 cells; assay type: cell-based; conditions: human, MRC-5 cells
Measured endpoint: EC50

stdin: I'd like to know its EC50. The compound in question is COC(=O)CN1C(C)=Nc2ccc(Br)cc2C1c1ccccc1 (stereo not shown) [1a]
stdout: > 50 µM

###

target: T. brucei TryR (Trypanosoma brucei brucei); test: Mode of inhibition studies; assay type: biochemical; conditions: with respect to trypanothione disulfide
Measured endpoint: mode of inhibition

| Molecule | Result |
| --- | --- |
| CC1=Nc2ccc(Cl)cc2C(c2ccccc2)N1CCNC(=O)c1ccco1 (stereo not shown) [11e] | mixed mode of inhibition |
| CC1=Nc2ccc(Cl)cc2C(c2ccccc2)N1CCN1CCN(C(=O)CN(C)C)CC1 (stereo not shown) [13h] | mixed mode of inhibition |
